So I've got a bunch of compounds here, and I need their pIC50 values.
- Measurement Target: EZH2 (Homo sapiens (Human), UniProt Q15910)
- Sequence (Q15910 other isoform, or with tags, fused parts or gaps): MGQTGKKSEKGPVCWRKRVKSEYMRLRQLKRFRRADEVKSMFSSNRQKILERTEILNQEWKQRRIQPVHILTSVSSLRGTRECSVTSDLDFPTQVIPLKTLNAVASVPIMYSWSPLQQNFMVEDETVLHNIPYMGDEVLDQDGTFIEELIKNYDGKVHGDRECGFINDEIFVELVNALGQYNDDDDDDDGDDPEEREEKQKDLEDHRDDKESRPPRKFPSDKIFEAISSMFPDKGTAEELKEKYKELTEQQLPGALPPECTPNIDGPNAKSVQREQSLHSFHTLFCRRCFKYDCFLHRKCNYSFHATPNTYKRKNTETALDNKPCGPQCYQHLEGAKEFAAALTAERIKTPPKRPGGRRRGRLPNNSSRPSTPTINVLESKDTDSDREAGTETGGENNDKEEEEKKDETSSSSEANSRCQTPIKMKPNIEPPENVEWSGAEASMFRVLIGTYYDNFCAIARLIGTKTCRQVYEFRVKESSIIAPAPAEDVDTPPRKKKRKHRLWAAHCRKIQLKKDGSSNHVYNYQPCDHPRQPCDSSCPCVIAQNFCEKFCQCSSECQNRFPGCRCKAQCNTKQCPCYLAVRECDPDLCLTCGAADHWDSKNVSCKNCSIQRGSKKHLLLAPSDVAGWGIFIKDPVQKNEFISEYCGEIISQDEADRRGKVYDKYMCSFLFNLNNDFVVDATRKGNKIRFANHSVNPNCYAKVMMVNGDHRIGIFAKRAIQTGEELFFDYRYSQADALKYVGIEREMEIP
- Sequence (O75530 whole entry partner): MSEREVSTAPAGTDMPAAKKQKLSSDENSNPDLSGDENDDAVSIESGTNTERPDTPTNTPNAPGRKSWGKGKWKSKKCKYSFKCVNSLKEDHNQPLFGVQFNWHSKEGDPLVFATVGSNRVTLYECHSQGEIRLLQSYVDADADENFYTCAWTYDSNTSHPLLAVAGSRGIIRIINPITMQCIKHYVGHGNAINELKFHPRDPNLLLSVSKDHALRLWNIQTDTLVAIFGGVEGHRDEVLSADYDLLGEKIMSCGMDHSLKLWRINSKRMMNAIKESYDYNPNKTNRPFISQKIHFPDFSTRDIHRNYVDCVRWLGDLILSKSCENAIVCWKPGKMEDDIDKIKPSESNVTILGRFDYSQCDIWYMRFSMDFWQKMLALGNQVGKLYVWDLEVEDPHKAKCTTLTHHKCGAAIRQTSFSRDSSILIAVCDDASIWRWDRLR
- Sequence (Q15022 whole entry partner): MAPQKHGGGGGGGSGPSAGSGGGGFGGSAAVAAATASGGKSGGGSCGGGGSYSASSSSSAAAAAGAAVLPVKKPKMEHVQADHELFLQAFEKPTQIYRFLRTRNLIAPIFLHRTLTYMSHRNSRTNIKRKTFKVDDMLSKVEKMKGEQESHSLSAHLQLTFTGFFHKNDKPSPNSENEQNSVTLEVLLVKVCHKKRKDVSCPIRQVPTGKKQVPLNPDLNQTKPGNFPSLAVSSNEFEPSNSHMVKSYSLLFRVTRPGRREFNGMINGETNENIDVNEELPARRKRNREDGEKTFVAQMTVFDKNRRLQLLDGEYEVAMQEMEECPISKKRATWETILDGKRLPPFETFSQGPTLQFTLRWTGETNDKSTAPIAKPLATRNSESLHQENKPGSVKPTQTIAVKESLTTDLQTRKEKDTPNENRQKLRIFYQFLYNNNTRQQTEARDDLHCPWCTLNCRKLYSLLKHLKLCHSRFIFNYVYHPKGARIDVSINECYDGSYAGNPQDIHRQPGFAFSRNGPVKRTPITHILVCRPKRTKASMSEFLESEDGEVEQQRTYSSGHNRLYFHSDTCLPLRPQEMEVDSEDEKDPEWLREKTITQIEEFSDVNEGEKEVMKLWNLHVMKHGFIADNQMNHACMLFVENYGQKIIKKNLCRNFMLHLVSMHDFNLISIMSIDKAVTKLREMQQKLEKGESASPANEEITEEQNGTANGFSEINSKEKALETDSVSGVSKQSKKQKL
- Sequence (Q09028 whole entry partner): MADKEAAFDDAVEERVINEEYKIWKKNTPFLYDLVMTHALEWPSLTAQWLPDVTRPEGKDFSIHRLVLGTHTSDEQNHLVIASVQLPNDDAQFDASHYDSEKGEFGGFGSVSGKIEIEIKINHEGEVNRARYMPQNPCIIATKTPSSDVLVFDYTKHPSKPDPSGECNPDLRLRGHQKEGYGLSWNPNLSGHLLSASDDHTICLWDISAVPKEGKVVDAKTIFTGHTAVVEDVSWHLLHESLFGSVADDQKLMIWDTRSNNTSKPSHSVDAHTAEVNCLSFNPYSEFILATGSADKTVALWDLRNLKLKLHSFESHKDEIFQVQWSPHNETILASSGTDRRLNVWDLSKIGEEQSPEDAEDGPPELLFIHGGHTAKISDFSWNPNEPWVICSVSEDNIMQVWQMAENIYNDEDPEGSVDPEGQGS
- Protocol Details: PRC2 enzyme assay on peptide substrates
- Format: biochemical
- Condition Context: PRC2 enzyme assays on peptide substrates; 4 nM enzyme, 30 min preincubation at 25° C.; read-out: EZH2 IC50
pIC50: −log10 of the molar value.

For Cc1cc(C)c(CNC(=O)c2cc(C3=CC(C)(C)NC(C)(C)C3)nc3c2cnn3C2CCN(Cc3ccccc3)CC2)c(=O)[nH]1 , what is its reported pIC50?
> 6.52

For C=C(Cn1ncc2c(C(=O)NCc3c(C)cc(C)[nH]c3=O)cc(C3=CC(C)(C)NC(C)(C)C3)nc21)C(=O)OC , what is its reported pIC50?
5.52 to 6.00

For Cc1ccc(CNC(=O)c2cc(-c3cccc(CN(C)CCN(C)C)c3)nc3c2cnn3C(C)C)c(=O)[nH]1 , what is its reported pIC50?
4.30 to 5.00

For Cc1cc(C)c(CNC(=O)c2cc(C=O)cc3c2cnn3C2CCCC2)c(=O)[nH]1 , what is its reported pIC50?
> 6.52

For Cc1cc(C)c(CNC(=O)c2cc(C3CCOCC3)nc3c2cnn3C(C)C)c(=O)[nH]1 , what is its reported pIC50?
5.00 to 5.52
